Tested on: H187 lung cancer cell line
Assay: Cytotoxic activity of dimers (ATP luminescence or MTS cell proliferation assay)
Assay type: cell-based
Conditions: Homo sapiens, NCI-H187; H187 cells; free dimer; 72 h incubation
Endpoint Name: IC50 (nM)

compound="COc1cc2c(cc1OCc1cccc(COc3cc4c(cc3OC)C(=O)N3Cc5cc(N)ccc5C[C@H]3C=N4)n1)N=C[C@@H]1Cc3ccccc3CN1C2=O [IIa-03]" endpoint_name=IC50 reported_value=0.002
compound="COc1cc2c(cc1OCc1cccc(COc3cc4c(cc3OC)C(=O)N3Cc5ccccc5C[C@H]3C=N4)n1)N=C[C@@H]1Cc3ccccc3CN1C2=O [IIa-01]" endpoint_name=IC50 reported_value=0.001
